Test system: Zika virus NS2B-NS3 protease (linked construct)
assay-notes: Primary screen NINDS Rhodamine qHTS for Zika virus inhibitors (AID 1347160); note: nearly all actives have a fitted effect of over 55% in size
experimental-parameters: purified NS2B-NS3 protease, Rhodamine110 substrate fluorescence; series mostly up to 33.1 µM
Inconclusive results are not listed. Calls of active or inactive are those of the source. Calls come from the whole dose curve; as a rule, active = well fitted inhibition curve with a large enough effect; inconclusive = small, poorly fitted or top-dose-only effect; inactive = no such curve, though single readings can be large or run the other way. Where a SMILES comes first, the peptide text is derived from it.
Labels: 1.0 = active, 0.0 = inactive

compound | cat
COC1OC(O)C2(CCC3(O2)C(C)CC2OC(=O)C4(C)CCCC3(C)C24)C1O (configuration not stated) | 0.0
Cc1ncc(NC(=O)c2ccc(CN3CCN(C)CC3)c(C(F)(F)F)c2)cc1Nc1nccc(-c2cccnc2)n1 | 0.0
COc1ccc(C2(O)c3ccccc3NC(=O)C2OC)cc1 (configuration not stated) | 0.0
Cc1ccc([C@@H]2CC=C(C(=O)O)[C@H](c3ccc(C(C)(C)C)cc3)N2S(=O)(=O)c2ccc(C)cc2)cc1 | 1.0
COc1ccc(-n2c(SCC#N)nc3sc4c(c3c2=O)CCCC4)cc1 | 0.0
C/C=C/C=C/C=C/C(=O)OC1C=C2C(O)OC(=O)[C@]2(O)[C@@]2(C)CCCC(C)(C)[C@H]12 (some centres not stated) | 1.0
CC1(C)CC2C3=CCC4[C@@]5(C)CC[C@H](OC6OCC(O)C(OC7OC(CO)C(O)C(O)C7O)C6O)C(C)(C)C5CC[C@@]4(C)[C@]3(C)C[C@H](O)[C@@]2(CO)[C@H](OC(=O)c2ccccc2)C1 (some centres not stated) | 0.0
C=C1C(OC(C)=O)CCC2(C)CC3(O)OC(=O)C(C)=C3CC12 (configuration not stated) | 0.0
CC1=C(CCC(C)O[C@@H]2O[C@H](CO)[C@@H](O)[C@H](O)[C@H]2O)C(C)(C)CC(O)C1 (some centres not stated) | 0.0
CC1(C)O[C@H]2CC(=O)OC[C@@]23C1=C(O)C(=O)[C@]1(C)C3CC[C@@]2(C)[C@H](c3ccoc3)OC(=O)[C@H]3O[C@]321 (some centres not stated) | 0.0
C[C@@H]1O[C@@H](O[C@H]2[C@H](O)[C@@H](O[C@@H]3O[C@H](CO)[C@H](O)[C@H](O)[C@H]3O)[C@H](O[C@H]3CC[C@@]4(C)C(CC[C@]5(C)C4CC=C4[C@@H]6CC(C)(C)CC[C@]6(C(=O)O[C@@H]6O[C@H](CO)[C@@H](O)[C@H](O)[C@H]6O)CC[C@]45C)C3(C)C)O[C@@H]2C(=O)O)[C@H](O)[C@H](O)[C@H]1O (some centres not stated) | 0.0
Cc1cn2cc(CC(=O)N3CCC4(CC3)CN(Cc3ccc(-n5nccn5)cc3Cl)C4)nc2s1 | 0.0
Cc1[nH]c2ccccc2c1CC(=O)N[C@@H](Cc1ccccc1)C(=O)N(C)c1ccccc1 | 0.0
CC(=O)NC(Cc1ccccc1)C(=O)NC(C(=O)O)C(C)C (stereo not drawn) (Ac-Phe-Val-OH; configuration not given here) | 0.0
O=C(O)/C=C/c1ccc(O[C@@H]2O[C@H](CO)[C@@H](O)[C@H](O)[C@H]2O)cc1 | 0.0
OCC1=C[C@@H](O)[C@@H]2C=CO[C@@H](O[C@@H]3O[C@H](CO)[C@@H](O)[C@H](O)[C@H]3O)[C@H]12 | 0.0
C/C(=C\CCC(C)(C)O)CCO[C@@H]1O[C@H](CO[C@@H]2O[C@@H](C)[C@H](O)[C@@H](O)[C@H]2O)[C@@H](O)[C@H](O)[C@H]1O | 0.0
CCOC(=O)COc1ccc2c(c1)C[C@@H](NC[C@H](O)c1cccc(Cl)c1)CC2 | 0.0
C=C(C)[C@@H]1CC[C@]2(C)CC[C@]3(C)C(CCC4[C@@]5(C)CC[C@H](O)C(C)(C)C5CC[C@]43C)C12 (some centres not stated) | 0.0
COc1ccc2[nH]c(S(=O)Cc3ncc(C)c(OC)c3C)nc2c1 (configuration not stated) | 0.0
CC1(C)CC[C@]2(C(=O)O[C@@H]3O[C@H](CO)[C@@H](O)[C@H](O)[C@H]3O)CC[C@]3(C)C(=CCC4[C@@]5(C)C[C@@H](O)[C@H](O)[C@@](C)(CO)C5[C@H](O)C[C@]43C)C2[C@@H]1O (some centres not stated) | 0.0
C/C=C(\C)C(=O)OC1C2(O)CC3=C4CC(=O)OC(c5ccoc5)C4(C)CCC3C(C)(C2=O)C(C(OC(C)=O)C(=O)OC)C1(C)C (configuration not stated) | 0.0
CC(C)NC(=O)c1ccc(C#Cc2ccncc2)cn1 | 0.0
N=C(N)c1ccc2nc(-c3cc(CC(=O)NC(CC(=O)O)C(=O)O)cc(-c4cc(S(N)(=O)=O)ccc4O)c3O)[nH]c2c1 (configuration not stated) | 0.0
COC(=O)[C@@H](NC(=O)[C@H](CC(C)C)NC(=O)N(Cc1ccccc1)C[C@@H](O)[C@H](Cc1ccccc1)NC(=O)OC(C)(C)C)C(C)C | 0.0
C/C=C1/C[N+](C)([O-])C2Cc3c([nH]c4ccccc34)C(=O)CC1C2C(=O)OC (configuration not stated) | 0.0
CC1(C)CC[C@]2(C(=O)O[C@@H]3O[C@H](CO)[C@@H](O)[C@H](O)[C@H]3O)CC[C@]3(C)C(=CCC4[C@@]5(C)CC[C@H](O[C@@H]6O[C@H](C(=O)O)[C@@H](O[C@@H]7O[C@H](CO)[C@@H](O)[C@H](O)[C@H]7O)[C@H](O)[C@H]6O[C@@H]6O[C@H](CO)[C@@H](O)[C@H](O)[C@H]6O)C(C)(C)C5CC[C@]43C)C2C1 (some centres not stated) | 0.0

---

Test system: Nanoluciferase (engineered Oplophorus gracilirostris luciferase)
assay-notes: Primary Nanoluciferase (NLuc) qHTS assay for identification of artifact compounds. (AID 1845222);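 note: NLuc secreted into diluted conditioned medium of S16 cells; 0% = DMSO and -100% = no enzyme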
experimental-parameters: NLuc-conditioned medium, Nano-Glo luminescence, 5 min; series mostly up to 54.1 µM
Calls of active or inactive are those of the source. Calls come from the whole dose curve; as a rule, active = well fitted inhibition curve with a large enough effect; inconclusive = small, poorly fitted or top-dose-only effect; inactive = flat fitted curve, though single readings scatter. Where a SMILES comes first, the peptide text is derived from it. The star is where a group is joined. PhAc = O=C(Cc1ccccc1)*

compound | activity, negative = inhibition
CC(C)C1(O)NC(=O)C(CC2(O)c3ccccc3N3C(=O)C(C)(C)NC32)n2c1nc1ccccc1c2=O (stereo not given) | inactive
C=C1C2CCC3C(CCC4[C@@]3(C)CCC[C@@]4(C)C(=O)O)(C2)[C@@H]1OC(=O)/C(C)=C\C (stereo not given in full) | inactive
O=C(/C=C/c1ccc(O)cc1)OC[C@@]1(O)C=C[C@@H]2C(C(=O)O)=CO[C@@H](O[C@@H]3O[C@H](CO)[C@@H](O)[C@H](O)[C@H]3O)[C@@H]21 | inactive
CCOC(=O)CNC(=O)[C@@H]1CCCN1C(=O)Cc1ccccc1 (PhAc-Pro-Gly-OEt) | inactive
C[C@@H]1O[C@@H](O[C@H]2[C@H](OC(=O)[C@]34CCC(C)(C)C[C@H]3C3=CCC5[C@@]6(C)CC[C@H](O[C@@H]7O[C@H](CO[C@@H]8OC[C@H](O)[C@H](O)[C@H]8O[C@@H]8OC[C@@H](O)[C@H](O)[C@H]8O)[C@@H](O)[C@H](O)[C@H]7O)C(C)(C)C6CC[C@@]5(C)[C@]3(C)C[C@H]4O)O[C@H](CO)[C@@H](O)[C@@H]2O)[C@H](O[C@@H]2O[C@H](CO)[C@@H](O)[C@H](O)[C@H]2O)[C@H](O)[C@H]1O[C@@H]1OC[C@@H](O)[C@H](O[C@@H]2OC[C@@H](O)[C@H](O)[C@H]2O)[C@H]1O (stereo not given in full) | 3.87% [at 6.45 µM] (inactive)

---

assay-notes: Primary qHTS for inhibitors of nuclear receptor binding SET domain protein 2 (NSD2) in an isogenic RCH-ACV NSD2 p.E1099K mutant (9B) (AID 1645876); note: potency is the fitted concentration of half-maximal effect; nearly all actives have a fitted effect of over 70% in size
experimental-parameters: RCH-ACV (leukaemia line) NSD2 E1099K (9B) viability, CellTiter-Glo, 72 h; series mostly up to 44.9 µM
Inconclusive results are not listed. Active and inactive are the calls of the source. Calls follow the shape of the dose curve; as a rule, active = well fitted inhibition curve with a large enough effect; inconclusive = small, poorly fitted or top-dose-only effect; inactive = flat fitted curve, though single readings scatter.
Quick list: Potency per entry.

molecule | Potency
O=c1[nH]ccc2nc(-c3ccc(CN4CCC(c5nc(-c6ccccn6)n[nH]5)CC4)cc3)c(-c3ccccc3)cc12 | 0.0325 µM (active)
CC1CCC2(C(=O)O)CCC3(C)C(=CCC4C5(C)C[C@@H](O)[C@@H](O)C(C)(CO)C5CCC43C)C2C1(C)O (stereo partly drawn) | 6.32 µM (active)
COc1cc2c(cc1O)C(c1ccc(O)cc1)C(C)C(C)C2 (stereo not drawn) | 25.8 µM (active)
FC(F)(F)c1nnc2c(Sc3ccccc3)nc3ccc(Cl)cc3n12 | 4.09 µM (active)
COc1cc2nc(=NC(=O)c3cccnc3)n3c(c2cc1OC)NCC3 | 4.59 µM (active)
O=C(CCCCC1CCCCC1)N1CCC(c2cnc[nH]2)CC1 | 23 µM (active)
Cc1ccc(-n2nc(C(C)(C)C)cc2NC(=O)Nc2cc(COc3cccnc3)[nH]n2)cc1 | 18.3 µM (active)
O=C1C(Cl)=C(N2CCOCC2)C(=O)N1c1ccc(Cl)c(Cl)c1 | 7.96 µM (active)
